RP-LC retention time for assorted molecules
- run.description: gradient 5% acetonitrile 3 min, to 50% in 2 min, to 85% in 15 min, held 3 min, 100 µL/min
- experimental.conditions: column: Zorbax Extend-C18 2.1 x 50 mm; eluents: water / acetonitrile, 0.1% formic acid
measured.parameter: RP-LC retention time

{"molecule": "COCc1nc(C2CCN(C(=O)c3ccoc3)C2)no1 (stereo not drawn)", "result.value": "644 s"}
{"molecule": "Cc1cc(C)cc(NC(=O)CSc2nccc(N3CCN(c4cc(C)ccc4C)CC3)n2)c1", "result.value": "989 s"}
{"molecule": "Cc1nc(N2CCCCC2)cc(N2CCN(C(=O)c3ccc(Br)o3)CC2)n1", "result.value": "689 s"}

---

- run.description: gradient 5% acetonitrile 3 min, to 50% in 2 min, to 85% in 15 min, held 3 min, 100 µL/min
- experimental.conditions: column: Zorbax Extend-C18 2.1 x 50 mm; eluents: water / acetonitrile, 0.1% formic acid
Classify: Yes when RP-LC retention time is strictly less than 900 s; No when RP-LC retention time is not.

{"compound": "COc1ccc(N2CCN(c3nc(C)cc(C)n3)CC2)cc1", "label.value": "Yes"}
{"compound": "O=C(Cn1cccc1-c1nc(-c2ccccc2)cs1)N1CCC(N2CCCCC2)CC1", "label.value": "Yes"}
{"compound": "O=C(NCc1ccccc1F)C1=C2CCCN2c2ccc(F)cc2S1(=O)=O", "label.value": "Yes"}
{"compound": "COc1ccc(F)cc1S(=O)(=O)N(C)CC1(C)CCOCC1", "label.value": "Yes"}
{"compound": "CCN1C(=O)c2cccnc2Sc2cc(NC(=O)C3(c4ccc(OC)cc4)CC3)ccc21", "label.value": "No"}
{"compound": "CCn1c(CN2CCN(S(C)(=O)=O)CC2)nc2cc(NC(=O)CC(C)C)ccc21", "label.value": "Yes"}
{"compound": "O=S(=O)(Nc1ccc(F)c(F)c1)c1ccccc1-c1nc(-c2ccccc2)no1", "label.value": "No"}
{"compound": "Cc1nn(-c2ccc(F)cc2)c(-n2cccc2)c1C(=O)N1CCN(c2ccccn2)CC1", "label.value": "Yes"}
{"compound": "COC(=O)c1c(N)n(C(C)c2ccccc2)c2nc3ccccc3nc12 (stereo not given)", "label.value": "Yes"}
{"compound": "C=CCNc1ncnc2sc(SC)nc12", "label.value": "Yes"}

---

- run.description: gradient 5% acetonitrile 3 min, to 50% in 2 min, to 85% in 15 min, held 3 min, 100 µL/min
- experimental.conditions: column: Zorbax Extend-C18 2.1 x 50 mm; eluents: water / acetonitrile, 0.1% formic acid
Entries and their RP-LC retention time

{"compound": "COc1cccc(CNC(=O)N2CCC(n3c(-c4ccco4)nc4cccnc43)C2)c1 (centres undefined)", "RP-LC retention time [s]": 712}
{"compound": "COc1ccc2c(c1)C1(CCN(C(=O)Nc3ccc(OC)c(OC)c3)C1)C(=O)N2 (centres undefined)", "RP-LC retention time [s]": 671}
{"compound": "O=C(CN1CCC(c2nc(-c3ccc(F)cc3)no2)CC1)NC1CCCCC1", "RP-LC retention time [s]": 715}
{"compound": "O=C(c1ccsc1)N1CCC(c2nc(-c3ccc(F)cc3)n[nH]2)CC1", "RP-LC retention time [s]": 726}

---

- run.description: gradient 5% acetonitrile 3 min, to 50% in 2 min, to 85% in 15 min, held 3 min, 100 µL/min
- experimental.conditions: column: Zorbax Extend-C18 2.1 x 50 mm; eluents: water / acetonitrile, 0.1% formic acid
Checkbox rule: RP-LC retention time lower than 700 s = Met; RP-LC retention time not lower than 700 s = Not met.

{"molecule": "CC(C)CNC(=O)c1ccc2c(c1)Sc1ncccc1C(=O)N2C(C)C", "label.value": "Not met"}
{"molecule": "CNC(=O)C1CCCN(C(=O)Nc2ccc(NC(=O)Nc3ccc(F)cc3)cc2)C1 (centres undefined)", "label.value": "Met"}
{"molecule": "COC(=O)c1c(C)[nH]c(C(=O)N2CCC(CC(=O)NCCc3c[nH]c4ccc(Cl)cc34)CC2)c1C", "label.value": "Not met"}
{"molecule": "N#Cc1ccc(C(=O)NC2CCN(C(=O)N3C[C@H]4C[C@H](C3)[C@H]3CCCC(=O)N3C4)CC2)cc1", "label.value": "Met"}
{"molecule": "CCc1nnc(-c2ccc3ccn(CC(=O)Nc4ccc(OC)cc4)c3c2)o1", "label.value": "Not met"}
{"molecule": "O=C(Cn1c(=O)c2cccn2c2ccc(F)cc21)NCCc1c[nH]c2ccccc12", "label.value": "Not met"}
{"molecule": "O=C(NCc1cccnc1)c1nnc(-c2ccc(S(=O)(=O)N3CCOCC3)cc2)o1", "label.value": "Met"}
{"molecule": "Cc1ccc(N2C=NS(=O)(=O)c3cccnc32)cc1F", "label.value": "Not met"}

---

In this section, each of the molecules is paired with its reported RP-LC retention time.
- run.description: gradient 5% acetonitrile 3 min, to 50% in 2 min, to 85% in 15 min, held 3 min, 100 µL/min
- experimental.conditions: column: Zorbax Extend-C18 2.1 x 50 mm; eluents: water / acetonitrile, 0.1% formic acid

{"molecule": "CC(C)n1c(CCNC(=O)c2ccc(F)cc2F)nc2cccnc21", "RP-LC retention time": "671 s"}
{"molecule": "CCc1ccc(Oc2cc(N3CCC(C(=O)NCc4ccc(C)cc4)CC3)ncn2)cc1", "RP-LC retention time": "1050 s"}
{"molecule": "O=C(Nc1cnc(N2CCCCCC2)nc1)c1ccsc1", "RP-LC retention time": "822 s"}
{"molecule": "CCc1ccc(NC(=O)C2CCCN(c3nc4ccccc4nc3C(F)(F)F)C2)cc1 (configuration not stated)", "RP-LC retention time": "1230 s"}
{"molecule": "CCN(CC)CCN1c2ccccc2Sc2ccc3ccccc3c21", "RP-LC retention time": "893 s"}
{"molecule": "Cn1nc(C(=O)N2CCC3(CC2)N=C(c2ccc(Br)cc2)NO3)c2ccccc21", "RP-LC retention time": "916 s"}
{"molecule": "CCOc1ccccc1N1CCN(S(=O)(=O)c2nn(C)cc2C(=O)NC2CCCCC2)CC1", "RP-LC retention time": "1110 s"}

---

- run.description: gradient 5% acetonitrile 3 min, to 50% in 2 min, to 85% in 15 min, held 3 min, 100 µL/min
- experimental.conditions: column: Zorbax Extend-C18 2.1 x 50 mm; eluents: water / acetonitrile, 0.1% formic acid
Decision: RP-LC retention time >= 700 s yields 1 (yes), all other cases yield 0 (no).

{"compound": "CCNC(=O)N1CCc2c([nH]c3ccc(Cl)cc23)C12C(=O)N(C)c1ccccc12 (stereo not drawn)", "label.value": "1 (yes)"}
{"compound": "O=C1CCC2(C(=O)NCCc3ccccc3)CCCC=C2N1c1ccccc1 (stereo not drawn)", "label.value": "1 (yes)"}
{"compound": "CCNC(=O)Nc1ccc2c(c1)CN(CC1CCCCC1)CCO2", "label.value": "0 (no)"}
{"compound": "Cc1cc(S(=O)(=O)N2CC(Cc3nncn3C3CCCC3)C2)ccc1F", "label.value": "1 (yes)"}
{"compound": "COc1cccc(NC(=O)Nc2ccc(CC(N)=O)cc2)c1OC", "label.value": "0 (no)"}
{"compound": "CCOc1ccc(S(=O)(=O)NCC2CCN(C(=O)c3cccn(C)c3=O)CC2)cc1C", "label.value": "0 (no)"}
{"compound": "O=C(Cc1ccc([N+](=O)[O-])cc1)NCc1ccc2[nH]c3c(c2c1)CCCC3", "label.value": "1 (yes)"}
{"compound": "O=C(Nc1ncccn1)c1c[nH]c2c(Cl)cccc2c1=O", "label.value": "0 (no)"}
{"compound": "Cc1ccc(CNC2=NCCNC23CCN(S(=O)(=O)c2ccc(Cl)cc2)CC3)cc1", "label.value": "1 (yes)"}
{"compound": "Cn1cc(C(CNC(=O)Nc2cccc(F)c2)c2cccnc2)c2ccccc21 (stereo not drawn)", "label.value": "0 (no)"}
{"compound": "CCOC(=O)c1c(C)c(CCC(=O)NCCN2CCOCC2)n(C)c1C", "label.value": "0 (no)"}
{"compound": "CC(C)CN1Cc2ccccc2-n2ccnc2C12CCN(C(=O)c1ccoc1)CC2", "label.value": "0 (no)"}

---

- run.description: gradient 5% acetonitrile 3 min, to 50% in 2 min, to 85% in 15 min, held 3 min, 100 µL/min
- experimental.conditions: column: Zorbax Extend-C18 2.1 x 50 mm; eluents: water / acetonitrile, 0.1% formic acid
measured.parameter: RP-LC retention time (s)

{"compound": "CCOc1ccc(NC(=O)N2CCC3(CC2)NC(=O)c2ccccc2N3CC)cc1", "measured.parameter": "RP-LC retention time", "result.value": 785}
{"compound": "Cn1nc(C(=O)NCC2CCOCC2)c2ccccc21", "measured.parameter": "RP-LC retention time", "result.value": 697}
{"compound": "COc1ccc(NC(=O)C2CCc3nc(N4CCOCC4)ncc3C2)cc1F (stereo unspecified)", "measured.parameter": "RP-LC retention time", "result.value": 718}
{"compound": "O=C(Cc1cccnc1)N1CCC[C@H]1c1nc(-c2ccccc2)n[nH]1", "measured.parameter": "RP-LC retention time", "result.value": 578}
{"compound": "CCOc1ccc2nc(NC(=O)C3CCN(C(=O)C4Sc5ccccc5NC4=O)CC3)sc2c1 (stereo unspecified)", "measured.parameter": "RP-LC retention time", "result.value": 826}
{"compound": "Cc1ccc(C(=O)N2C[C@@H](C)[C@H](c3nc(C)no3)C2)cn1", "measured.parameter": "RP-LC retention time", "result.value": 593}
{"compound": "CN1C(=O)COc2cc(-c3noc(C(=O)NCCc4ccc(S(N)(=O)=O)cc4)n3)ccc21", "measured.parameter": "RP-LC retention time", "result.value": 721}
{"compound": "O=C(c1cccnc1)N1CCCn2nc(-c3ccc(Cl)cc3)cc2C1", "measured.parameter": "RP-LC retention time", "result.value": 739}
{"compound": "CCn1ccc2cc(S(=O)(=O)N3CCC(C(=O)N4CCN(c5ncccn5)CC4)CC3)ccc21", "measured.parameter": "RP-LC retention time", "result.value": 880}
{"compound": "Cc1nn(-c2ccc(-c3ccccc3)nn2)c(C)c1S(=O)(=O)N(C)Cc1ccccc1", "measured.parameter": "RP-LC retention time", "result.value": 1190}
{"compound": "CCNc1cc(N2CCCC(CCC(=O)N3CCCC(C(=O)OCC)C3)C2)ncn1 (stereo unspecified)", "measured.parameter": "RP-LC retention time", "result.value": 664}
{"compound": "Cc1nnc(NC(=O)c2cc(C3CC3)n(C3CCS(=O)(=O)C3)n2)s1 (stereo unspecified)", "measured.parameter": "RP-LC retention time", "result.value": 646}
{"compound": "COc1ccc(CSc2nccc3c2ccn3CC(=O)N2CCN(c3ccccc3)CC2)cc1", "measured.parameter": "RP-LC retention time", "result.value": 786}
{"compound": "CN(C)c1nc2ncn3c(=O)n(CC(=O)NCc4ccc(F)cc4)nc3c2s1", "measured.parameter": "RP-LC retention time", "result.value": 675}
{"compound": "COCCCNC(=O)Cc1cn(C)c2ncccc12", "measured.parameter": "RP-LC retention time", "result.value": 576}
{"compound": "CCn1cc(-c2nc(C(=O)Nc3ccccc3OC)cs2)c2cccnc21", "measured.parameter": "RP-LC retention time", "result.value": 1180}
{"compound": "O=c1cc(-c2cc(O)c(O)c([C@@H]3O[C@H](CO)[C@@H](O)[C@H](O)[C@H]3O)c2)oc2cc(O[C@@H]3O[C@H](CO)[C@@H](O)[C@H](O)[C@H]3O)cc(O)c12", "measured.parameter": "RP-LC retention time", "result.value": 648}
{"compound": "CCc1noc(NC(C)=O)c1-c1ccc(C)c(S(=O)(=O)Nc2ccc(C)cc2C)c1", "measured.parameter": "RP-LC retention time", "result.value": 897}
{"compound": "COCc1nncn1C1CCN(S(=O)(=O)c2cccc(OC)c2)CC1", "measured.parameter": "RP-LC retention time", "result.value": 751}
{"compound": "CCOC(=O)c1c(C)n(C)c2ccc(O)cc12", "measured.parameter": "RP-LC retention time", "result.value": 803}
{"compound": "COc1cc(Cl)c(C)cc1NC(=O)CSc1ccc(N2CCCC(C(=O)NC3CC3)C2)nn1 (stereo unspecified)", "measured.parameter": "RP-LC retention time", "result.value": 774}
